Target: T1, murine IL-11 (mouse, UniProt P47873 22-199)
T1 sequence: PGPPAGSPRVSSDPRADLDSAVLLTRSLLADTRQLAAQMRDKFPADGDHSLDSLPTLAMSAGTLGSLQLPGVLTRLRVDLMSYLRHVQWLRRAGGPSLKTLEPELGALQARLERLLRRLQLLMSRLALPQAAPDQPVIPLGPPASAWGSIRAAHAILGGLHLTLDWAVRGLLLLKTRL
Assay: cell-based or functional assay
Endpoint: RGA Efficacy (%)
# number only, unit % dropped from output

Given the entry TPP-26318 (antibody, V domains shown) VH: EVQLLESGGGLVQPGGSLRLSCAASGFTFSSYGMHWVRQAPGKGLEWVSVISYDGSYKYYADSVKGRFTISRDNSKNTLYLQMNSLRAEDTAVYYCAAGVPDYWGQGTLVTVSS VL: QSVLTQPPSASGTPGQRVTISCTGSSSNIGAGYFVHWYQQLPGTAPKLLIYSNNERPSGVPDRFSGSKSGTSASLAISGLRSEDEADYYCAAWDDSLNGPVFGGGTKLTVL , report its measured RGA Efficacy (%).
82.3

Query: RGA Efficacy (%); subject: TPP-26333 (antibody, V domains shown) VH: EVQLLESGGGLVQPGGSLRLSCAASGFTFSSYGFHWVRQAPGKGLEWVSVISYDGSYKYYADSVKGRFTISRDNSKNTLYLQMNSLRAEDTAVYYCAAGVPDYWGQGTLVTVSS VL: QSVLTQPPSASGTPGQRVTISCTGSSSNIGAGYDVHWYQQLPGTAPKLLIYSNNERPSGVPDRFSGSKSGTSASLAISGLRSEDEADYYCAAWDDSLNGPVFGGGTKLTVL
94.1

Consider the additional binder presented here.
Bench note: what RGA Efficacy (%) did TPP-26303 (antibody, V domains shown) VH: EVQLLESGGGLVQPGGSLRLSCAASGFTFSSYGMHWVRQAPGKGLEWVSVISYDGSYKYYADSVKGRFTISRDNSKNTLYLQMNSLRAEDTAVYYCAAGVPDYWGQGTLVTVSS VL: QSVLTQPPSASGTPGQRVTISCTGSSSNIGAGYDVHWYQQLPGTAPKLLIYSNNERPEGVPDRFSGSKSGTSASLAISGLRSEDEADYYCAAWDDSLNGPVFGGGTKLTVL show?
95.7

Values were extracted from patent US20240317847A1.
